target: hERG (KCNH2) (Homo sapiens); assay: Inhibition of human ERG at 10 uM
Sequence (Q12809 whole entry): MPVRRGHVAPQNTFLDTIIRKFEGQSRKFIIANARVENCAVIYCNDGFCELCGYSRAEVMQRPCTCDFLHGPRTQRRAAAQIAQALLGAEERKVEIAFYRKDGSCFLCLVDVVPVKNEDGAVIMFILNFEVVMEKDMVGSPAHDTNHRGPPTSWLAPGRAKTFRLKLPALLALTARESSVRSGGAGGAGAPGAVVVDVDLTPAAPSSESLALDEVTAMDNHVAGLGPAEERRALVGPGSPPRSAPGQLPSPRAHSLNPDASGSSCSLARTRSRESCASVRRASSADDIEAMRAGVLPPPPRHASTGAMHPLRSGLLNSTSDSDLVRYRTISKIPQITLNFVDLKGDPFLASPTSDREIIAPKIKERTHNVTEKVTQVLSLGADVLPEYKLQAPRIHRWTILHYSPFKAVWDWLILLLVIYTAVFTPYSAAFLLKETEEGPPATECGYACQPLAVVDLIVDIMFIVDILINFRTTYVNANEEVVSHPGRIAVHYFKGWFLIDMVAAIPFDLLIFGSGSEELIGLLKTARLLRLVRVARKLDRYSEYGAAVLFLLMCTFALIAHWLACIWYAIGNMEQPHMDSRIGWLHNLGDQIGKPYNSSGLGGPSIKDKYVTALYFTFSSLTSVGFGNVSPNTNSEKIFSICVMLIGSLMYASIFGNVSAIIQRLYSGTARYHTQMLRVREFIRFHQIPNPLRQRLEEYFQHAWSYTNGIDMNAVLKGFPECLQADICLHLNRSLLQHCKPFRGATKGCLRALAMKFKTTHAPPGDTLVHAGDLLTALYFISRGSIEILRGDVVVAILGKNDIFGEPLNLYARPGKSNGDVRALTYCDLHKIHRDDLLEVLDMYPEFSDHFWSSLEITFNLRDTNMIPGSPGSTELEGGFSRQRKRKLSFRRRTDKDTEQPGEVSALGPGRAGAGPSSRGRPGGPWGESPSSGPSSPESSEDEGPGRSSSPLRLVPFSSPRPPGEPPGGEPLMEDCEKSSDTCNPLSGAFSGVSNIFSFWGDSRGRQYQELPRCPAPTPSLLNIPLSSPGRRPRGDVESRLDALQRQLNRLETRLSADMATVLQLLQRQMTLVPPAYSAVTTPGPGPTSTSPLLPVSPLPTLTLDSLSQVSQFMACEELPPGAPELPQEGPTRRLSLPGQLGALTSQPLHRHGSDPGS
I'd appreciate it if you could supply inhibition at 10 µM values for the items below.
Write down the numeric answer in % and omit the unit.

Request: Quick one: inhibition at 10 µM for "CC1=C(C(=O)N2CCN(c3ccc(F)cc3)CC2)[C@@H](c2ccc(Cl)c(Cl)c2)n2nccc2N1" ?
Response: 69

Request: Quick one: inhibition at 10 µM for "CC1=C(C(=O)N2CCN(c3ccc(F)cc3)CC2)[C@@H](c2cccc(Cl)c2Cl)n2nccc2N1" ?
Response: 41

====

target: Potassium voltage-gated channel subfamily A member 5 (Homo sapiens, UniProt P22460); test: Inhibition of human Kv1.5 channel expressed in Xenopus oocytes at 3 uM by EP voltage clamp technique; assay type: cell-based; conditions: Oocyte
Sequence (P22460 whole entry): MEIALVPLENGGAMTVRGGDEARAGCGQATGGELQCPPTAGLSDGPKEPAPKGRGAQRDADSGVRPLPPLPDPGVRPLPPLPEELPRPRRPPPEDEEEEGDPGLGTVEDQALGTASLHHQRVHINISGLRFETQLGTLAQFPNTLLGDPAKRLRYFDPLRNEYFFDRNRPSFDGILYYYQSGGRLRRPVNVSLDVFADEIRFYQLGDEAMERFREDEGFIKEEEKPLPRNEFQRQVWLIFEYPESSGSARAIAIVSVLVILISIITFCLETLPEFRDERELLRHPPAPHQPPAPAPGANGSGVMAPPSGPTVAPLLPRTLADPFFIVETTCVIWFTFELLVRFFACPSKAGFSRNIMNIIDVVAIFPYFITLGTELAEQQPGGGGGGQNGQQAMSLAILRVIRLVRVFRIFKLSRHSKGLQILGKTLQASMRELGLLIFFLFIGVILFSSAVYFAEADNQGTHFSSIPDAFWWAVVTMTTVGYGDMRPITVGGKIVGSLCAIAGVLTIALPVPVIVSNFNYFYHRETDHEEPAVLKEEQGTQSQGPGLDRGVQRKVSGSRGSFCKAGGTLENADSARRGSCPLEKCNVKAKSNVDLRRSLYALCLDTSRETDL
PROPERTY NAME: inhibition (%)
Write down the numeric answer in % and omit the unit.

Request: Requested read-out inhibition, target or system Potassium voltage-gated channel subfamily A member 5 (Homo sapiens, UniProt P22460), entry COc1ccccc1C1C(C(=O)N2CCN(c3ccc(F)cc3)CC2)=C(C)Nc2ccnn21 (stereo not given)
Response: 2

Request: Requested read-out inhibition, target or system Potassium voltage-gated channel subfamily A member 5 (Homo sapiens, UniProt P22460), entry "CC1=C(C(=O)N2CCN(c3ccc(F)cc3)CC2)[C@H](c2cccc(Cl)c2Cl)n2nccc2N1"
Response: 2

Request: Requested read-out inhibition, target or system Potassium voltage-gated channel subfamily A member 5 (Homo sapiens, UniProt P22460), entry CC1=C(C(=O)N2CCN(c3ccc(F)cc3)CC2)C(c2cccc([N+](=O)[O-])c2)n2nccc2N1 (stereo not given)
Response: 15

Request: Requested read-out inhibition, target or system Potassium voltage-gated channel subfamily A member 5 (Homo sapiens, UniProt P22460), entry CC1=C(C(=O)N2CCCC2)C(c2ccc(Cl)c(Cl)c2)n2nccc2N1 (stereo not given)
Response: 67

Request: Requested read-out inhibition, target or system Potassium voltage-gated channel subfamily A member 5 (Homo sapiens, UniProt P22460), entry CC1=C(C(=O)N2CCN(c3ccc(F)cc3)CC2)C(c2ccc([N+](=O)[O-])cc2)n2nccc2N1 (stereo not given)
Response: 24
